These data points were gathered from PubChem BioAssay (EPA / NIEHS).

PROCEDURE_TEXT: BSK_3C_TissueFactor: BioMAP Diversity Plus: 3C Assay for Tissue Factor Biomarker Activity (AID 2282997)
CONDITION: BioMAP 3C HUVEC, tissue factor biomarker readout; actives raise or lower the signal
Activity calls are given as the source filed them. Rule for the calls: active = hit-call score of the fitted dose curve at least 0.9, where 1 is the maximum; inactive = score below 0.9.
Bench note: report the call from 1 (active), -1 (inactive)

Reference set, count: 5
[[record]]
compound = "Nc1c(Cl)c(Cl)nc(C(=O)O)c1Cl"
class_assignment = -1

[[record]]
compound = "Cc1c(COC(=O)[C@@H]2[C@H](/C=C(\\Cl)C(F)(F)F)C2(C)C)cccc1-c1ccccc1"
class_assignment = -1

[[record]]
compound = "CCCCOCN(C(=O)CCl)c1c(CC)cccc1CC"
class_assignment = 1

[[record]]
compound = "COC(=O)NS(=O)(=O)c1ccc(N)cc1"
class_assignment = -1

[[record]]
compound = "CCOP(=O)(OCC)Oc1nc(Cl)c(Cl)cc1Cl"
class_assignment = -1


Query: What is the recorded call for this compound in the test? O=P(O)(O)CCCl
Result: -1
